Provenance of the data: PubChem BioAssay (NCI)

Tested on: HS 578T breast
Assay: NCI tumour cell line growth inhibition, 48 h; in the data active = GI50 below about 0.43 µM; inactive = the rest
Choose the fitting class; nothing outside active, inactive is accepted.

INSERT INTO assay_data (molecule, assigned_label) VALUES
  ('COC[C@H]1C(=O)NCC(=O)N2NCCC[C@H]2C(=O)N(O)[C@H](C)C(=O)O[C@@H](C(C)C)[C@H](NC(=O)[C@](C)(O)[C@]2(O)CC[C@@H](CC(C)C)[C@H](C)O2)C(=O)N2NCCC[C@@H]2C(=O)N1O', 'active'),
  ('COc1ccc(-c2cc3c4c(nc5ccccc5c4c2)CC(c2cc(OC)c(OC)c(OC)c2)O3)cc1 (stereo not given)', 'inactive'),
  ('Nc1ccccc1C#C/C=C\C#Cc1ccc(F)cc1F', 'inactive'),
  ('O=C1Nc2ccc(F)c3c(OCCO)cc(-c4ccc[nH]4)c1c23', 'inactive');

Turning now to a further record.
Fill in: this test's call for "Cc1cc(N(CCCl)CCCl)ccc1C=Nc1cccnc1" is ___ inactive

* * *

Test system: PC-3 prostate
Assay: NCI tumour cell line growth inhibition, 48 h; in the data active = GI50 below about 0.43 µM; inactive = the rest
Field 'call' accepts yes (1) for active, no (0) for inactive

Some entries whose results are on file:
INSERT INTO assay_data (molecule, assigned_label) VALUES
  ('C=CC1CC12C(=O)C1OC2(C)C2C(=O)c3ccccc3C(=O)C12 (stereo not drawn)', 'no (0)'),
  ('O=C1Nc2ccc(F)c3c(OCCO)cc(-c4ccc[nH]4)c1c23', 'no (0)'),
  ('O=C1Nc2ccc(Cl)cc2/C1=C\c1c(-c2ccc(F)cc2)nc2ccccn12', 'no (0)'),
  ('Cc1nc2sc(C(=O)Nc3cccc4ccccc34)c(N)c2cc1C(C)O (stereo not drawn)', 'yes (1)'),
  ('CCN(CC)c1ccc(NC(C(=O)c2ccccc2)c2ccccc2)cc1 (stereo not drawn)', 'no (0)'),
  ('ClCCN(CCCl)Cc1ccc(Nc2ccnc3cc(Cl)ccc23)cc1', 'no (0)'),
  ('CC1(C)CCC(S(=O)(=O)c2ccc3c(c2)/C(=N\O)c2cc(S(=O)(=O)N4CCC(O)(c5cccc(C(F)(F)F)c5)CC4)ccc2-3)CC1', 'yes (1)');

// return assay outcome for "O=C1OCC(c2ccc(O)c(O)c2)=C1c1cc(O)c(O)c(O)c1" no (0)

* * *

System: UACC-257 melanoma
Test: NCI tumour cell line growth inhibition, 48 h
test-readout: GI50

INSERT INTO results (compound, reading) VALUES
  ('O=C(Cn1ccnc1[N+](=O)[O-])N(CCO)CCO', '> 1250 µM'),
  ('COc1cc(-c2c3c(cn2S(=O)(=O)c2ccccc2)-c2nc(N)sc2CC3)cc(OC)c1OC', '10.3 µM'),
  ('COCCNCC(O)Cn1c2ccc(Cl)cc2c2cc(Cl)ccc21 (stereo not given)', '1.68 µM'),
  ('O=C(c1ccccc1)c1ccc(-c2ccc(O)cc2)cc1', '16 µM');

Query compound follows.
GI50 recorded for this compound, "CN(C(=O)C1CCCCC1)c1ccccc1I(=O)=O" , is 63.6 µM

* * *

Test system: MDA-N
Test: NCI tumour cell line growth inhibition, 48 h
test-readout: TGI

Example entries and their recorded answers appear below.
INSERT INTO measurements (compound, reading) VALUES
  ('CC(C)(C)C1CCC2c3c([nH]c4ccccc34)C3C(=O)N(c4cc(Br)cc(Br)c4)C(=O)C3C2C1 (stereo not given)', '> 100 µM'),
  ('Cc1cc(-c2ccc(C(=O)C(Cl)(Cl)Cl)[nH]2)on1', '> 100 µM'),
  ('CN(C)CC1CCC/C(=C\c2ccc(N(C)C)cc2)C1=O (stereo not given)', '19.6 µM'),
  ('O=C1Nc2ccccc2C(=O)OC(Cc2ccccc2)=Nc2ccccc21', '> 100 µM');

TGI measured on CC1C(c2ccc(N(C)C)cc2)c2cc3c(cc2OC1N1CCCC1)OCO3 (stereo not given) = 46.9 µM

* * *

Tested on: MOLT-4 leukemia
Assay: NCI tumour cell line growth inhibition, 48 h
Overview of recorded TGI for various molecules

INSERT INTO results (molecule, target_system, test_readout, reading) VALUES
  ('COc1ccc(C2C3=C(NC(=O)C2C#N)c2ccc4ccccc4c2OCC3)cc1 (stereo not drawn)', 'MOLT-4 leukemia', 'TGI', '> 100 µM');

Result for N=C(N)/N=C(/C=C/c1ccccc1)CC1OC(=O)c2ccccc21 (stereo not drawn) , tested on MOLT-4 leukemia, TGI: > 100 µM

Query "O=S(=O)(O)c1ccc(NN(c2c(O)ccc3ccccc23)S(=O)(=O)O)cc1" on MOLT-4 leukemia; TGI returned: > 100 µM

The observed TGI for CC(NC(=O)c1ccccc1)C(=O)N(Cc1ccccc1)Cc1ccccc1 (stereo not drawn) when tested with MOLT-4 leukemia stands at 35.6 µM

Item: "Cc1cccc(C)c1NC(=O)CCC(=O)NNC(=O)c1cc(O)c2ccccc2c1" | System: MOLT-4 leukemia | TGI: > 100 µM

Reading of TGI for "O=c1[nH]cnc2c1nnn2CCCn1nnc2c(=O)[nH]cnc21" with MOLT-4 leukemia: > 100 µM

Lab entry: MOLT-4 leukemia assay, molecule Cc1ccc(OP2(=O)Oc3ccc4ccccc4c3CN2c2ccc(Cl)cc2)cc1C (stereo not drawn) , TGI = > 100 µM

Test item "CN(C(=O)C1CCCCC1)c1ccccc1I(=O)=O" ; MOLT-4 leukemia; reported TGI was 51.8 µM

Entry "O=C1C=C(SCCO)C(=O)c2ccccc21" , tested on MOLT-4 leukemia, has a reported TGI of 4.51 µM

Here CCCCN(CC)C(=O)C(=O)C1C(=O)Nc2ccccc2S1=O (stereo not drawn) was tested on MOLT-4 leukemia, and its TGI came to > 100 µM

The observed TGI for "Nc1nc2ncn(CCO)c2c(=O)[nH]1" when tested with MOLT-4 leukemia stands at > 100 µM

TGI on MOLT-4 leukemia for "COc1ccc(/C=C2/CN(C(=O)c3ccccc3F)C/C(=C\c3ccc(OC)cc3)C2=O)cc1" is 49.5 µM

The reported TGI value, MOLT-4 leukemia, for "ClCCN(CCCl)Cc1ccc(Nc2ccnc3cc(Cl)ccc23)cc1" reads 2.78 µM

* * *

Test system: CCRF-CEM leukemia
Assay: NCI tumour cell line growth inhibition, 48 h
Listing of entries alongside the reported TGI.

These solved cases illustrate the format of a correct answer.
INSERT INTO assay_data (compound, target_system, test_readout, reading) VALUES
  ('O=C(NCCNCCO)N/N=C/c1cccc([N+](=O)[O-])c1', 'CCRF-CEM leukemia', 'TGI', '> 100 µM'),
  ('COc1cc2c(cc1O)[C@H](C)C(c1ccc(Cl)cc1)O2 (some centres undefined)', 'CCRF-CEM leukemia', 'TGI', '39 µM'),
  ('CCOc1ncn(-c2ccc(NC(=S)Nc3cccc(O)c3)cc2)n1', 'CCRF-CEM leukemia', 'TGI', '> 100 µM'),
  ('O=C(CCSC(CC(=O)c1ccc(Cl)cc1)c1ccc(Cl)cc1)Nc1ccc(Cl)cc1 (centres undefined)', 'CCRF-CEM leukemia', 'TGI', '5.55 µM');

Per the records, this compound ( "Cc1ccc(-c2cc(-c3ccco3)nc(N)n2)o1" ) has TGI equal to > 100 µM

The compound listed as "COc1cc(OC)cc(N2CCC(c3c(N)nc(N)nc3Cl)CC2)c1" shows TGI equal to > 100 µM

// field: TGI; key: "CC1=CC[C@@H]2[C@@H](CC[C@@]2(C)O)C(C)(C)[C@H]1CC[C@@H]1[C@@]2(C)CCC(=O)C(C)(C)O[C@@H]2CC[C@]1(C)O" ; value = 48 µM

Value of measured TGI for the entry "COc1c(C2(c3ccc(F)cc3)SCCCS2)c(=O)c1=O" : > 100 µM

Summary for this compound, COC1=CC(c2ccc[nH]2)=N/C1=C\c1[nH]c(C)c(C(=O)CCC(=O)Oc2ccc3c(c2)CCC2C3CC[C@]3(C)C(=O)CC[C@@H]23)c1C (some centres undefined) : TGI is > 100 µM

* * *

System: HS 578T breast
Assay: NCI tumour cell line growth inhibition, 48 h
TGI listing for selected molecules.

INSERT INTO assay_data (molecule, reading) VALUES
  ('COc1c2cc(C(C)(C)C)cc1CSCc1cc(C(C)(C)C)cc(c1OC)CCCCC2', '> 50 µM');

Query "CCCC[C@@H]1NC(=O)[C@H](CCCCN)NC(=O)[C@H](CCCNC(=N)N)NC(=O)[C@H](CC(C)C)NC(=O)[C@@H](NC(=O)[C@H](Cc2cccc(Cl)c2)NC(=O)[C@@H]2CCCN2C(=O)[C@@H](NC(C)=O)C(C)C)CCSSC[C@@H](C(=O)N[C@@H](CCCCN)C(=O)N2CCC[C@H]2C(=O)N2CCC[C@H]2C(=O)N[C@@H](CCC(=O)O)C(N)=O)NC(=O)[C@H](Cc2ccccc2)NC(=O)[C@H](CO)NC(=O)[C@H](C)NC(=O)[C@@H]2CCCN2C1=O" on HS 578T breast; TGI returned: > 50 µM

Entry C=C(NC(=O)C(=C)NC(=O)c1csc(C2=NC3c4csc(n4)C4NC(=O)c5csc(n5)C(C(C)(O)C(C)O)NC(=O)C5CSC(=N5)/C(=C/C)NC(=O)C(C(C)O)NC(=O)c5csc(n5)C3(CC2)NC(=O)C(C)NC(=O)C(=C)NC(=O)C(=C)NC(=O)C(C(C)C)NC2C=Cc3c(C(C)O)cc(nc3C2O)C(=O)OC4C)n1)C(N)=O (centres undefined) , HS 578T breast data, TGI value: > 100 µM

Entry "COc1ccc2c(c1O)-c1c(OC)c(OC)cc3c1[C@H](C2)[N+](C)(C)CC3" , HS 578T breast data, TGI value: > 100 µM
